- Protocol Notes: Inhibition of recombinant Plasmodium falciparum recombinant IspC using […]1-Deoxy-D-xylulose 5-phosphate substrate by photometric assay

Compound	IC50
CN(O)C(=O)COC(c1ccc(Cl)c(Cl)c1)P(=O)(O)O (stereo not drawn)	0.014 µM
CN(O)C(=O)COC(c1ccc(F)cc1F)P(=O)(O)O (stereo not drawn)	0.065 µM
CN(O)C(=O)COC(c1ccccc1)P(=O)(O)O (stereo not drawn)	0.037 µM
CN(O)C(=O)COC(c1cccc2ccccc12)P(=O)(O)O (stereo not drawn)	0.039 µM
O=C(COC(c1ccc(F)cc1F)P(=O)(O)O)NO (stereo not drawn)	1.7 µM
CN(O)C(=O)COC(c1ccc(F)cc1)P(=O)(O)O (stereo not drawn)	0.027 µM
CN(O)C(=O)CCC(c1ccccc1)P(=O)(O)O (stereo not drawn)	0.0031 µM
Cc1ccc(C(CCC(=O)N(C)O)P(=O)(O)O)cc1 (stereo not drawn)	0.014 µM
CCN(O)C(=O)COC(c1ccccc1)P(=O)(O)O (stereo not drawn)	0.21 µM
CN(O)C(=O)COC(c1ccc(F)c(F)c1)P(=O)(O)O (stereo not drawn)	0.012 µM
O=C(COC(c1ccccc1)P(=O)(O)O)NO (stereo not drawn)	1.5 µM
Cc1ccc(C(OCC(=O)N(C)O)P(=O)(O)O)cc1 (stereo not drawn)	0.025 µM
Cc1ccc(C(OCC(=O)NO)P(=O)(O)O)cc1 (stereo not drawn)	1.8 µM

----------
- System: Plasmodium falciparum
- Protocol Notes: Antiplasmodial activity against chloroquine-resistant Plasmodium falciparum Dd2 incubated for 3 days by HRP2 detection based ELISA method
- Type: functional, organism-based
- Study Conditions: Dd2, 72 h
Observed Property: log10 IC50 (log10 of the value in nM)

Compound	log10 IC50
CN(O)C(=O)COC(c1ccc(F)cc1F)P(=O)(O)O (stereo unspecified)	3.08
CN(O)C(=O)COC(c1ccc(F)c(F)c1)P(=O)(OCOC(=O)C(C)(C)C)OCOC(=O)C(C)(C)C (stereo unspecified)	1.34
CCNC(=O)ON(C)C(=O)COC(c1ccc(F)c(F)c1)P(=O)(OCOC(=O)C(C)(C)C)OCOC(=O)C(C)(C)C (stereo unspecified)	1.34
CCOC(=O)ON(C)C(=O)COC(c1ccc(F)c(F)c1)P(=O)(OCOC(=O)C(C)(C)C)OCOC(=O)C(C)(C)C (stereo unspecified)	1.28
Cc1ccc(C(OCC(=O)N(C)O)P(=O)(O)O)cc1 (stereo unspecified)	2.28
CN(O)C(=O)COC(c1ccccc1)P(=O)(O)O (stereo unspecified)	2.85
